Source of measurements: paper PMC10572602

Test system: STIL CCD peptide
assay.remarks: AUC sedimentation velocity (SV), oligomeric state
Assay type: physicochemical
applied.conditions: 10 µM
attribute.measured: Oligomeric State (at 10 µM)

>>> observed_value("L SPDLYRF LTEQDRQ LRLLQAQ IQRLLEA QSL-NH2 [STIL CCD718–749 A722L, STIL CCD peptide with A722L mutation]")
"Tetramer"
>>> observed_value("L SPDAYRF LTELDRQ LRLLQAQ IQRLLEA QSL-NH2 [STIL CCD718–749 Q729L, STIL CCD peptide with stabilising Q729L mutation; PDB 8oyl]")
"Tetramer"
>>> observed_value("L SPDLYRF LTELDRQ LRLLQAQ IQRLLEA QSL-NH2 [STIL CCD718–749 A722L Q729L, STIL CCD peptide, double mutant of A722L and Q729L]")
"Tetramer"

---

System: STIL CCD peptide
assay.remarks: AUC sedimentation velocity (SV), oligomeric state
Type: physicochemical
applied.conditions: 10 µM; AUC-SV, 60 krpm, 20 °C, pH 6.8; 95% confidence level
attribute.measured: mw (solution mass from c(s) fit) (Da)
Give a bare numeral; the unit Da is implied.

>>> observed_value("L SPDAYRF LTEQDRQ LRLEQAQ IQRLLEA QSL-NH2 [STIL CCD718–749 L736E, STIL CCD peptide with destabilising L736E mutation; PDB 8oyk]")
3849

What mw (solution mass from c(s) fit) value was documented for this substance, L SPDLYRF LTELDRQ LRLLQAQ IQRLLEA QSL-NH2 [STIL CCD718–749 A722L Q729L, STIL CCD peptide, double mutant of A722L and Q729L] ?
16229

What mw (solution mass from c(s) fit) value was documented for this substance, L SPDLYRF LTEQDRQ LRLLQAQ IQRLLEA QSL-NH2 [STIL CCD718–749 A722L, STIL CCD peptide with A722L mutation] ?
15133

What mw (solution mass from c(s) fit) value was documented for this substance, L SPDAYRF LTELDRQ LRLLQAQ IQRLLEA QSL-NH2 [STIL CCD718–749 Q729L, STIL CCD peptide with stabilising Q729L mutation; PDB 8oyl] ?
13538
